Origin of the recorded values: patent US11254651B2

assayedSystem: G9a (Homo sapiens)
Sequence (Q96KQ7 1-1210): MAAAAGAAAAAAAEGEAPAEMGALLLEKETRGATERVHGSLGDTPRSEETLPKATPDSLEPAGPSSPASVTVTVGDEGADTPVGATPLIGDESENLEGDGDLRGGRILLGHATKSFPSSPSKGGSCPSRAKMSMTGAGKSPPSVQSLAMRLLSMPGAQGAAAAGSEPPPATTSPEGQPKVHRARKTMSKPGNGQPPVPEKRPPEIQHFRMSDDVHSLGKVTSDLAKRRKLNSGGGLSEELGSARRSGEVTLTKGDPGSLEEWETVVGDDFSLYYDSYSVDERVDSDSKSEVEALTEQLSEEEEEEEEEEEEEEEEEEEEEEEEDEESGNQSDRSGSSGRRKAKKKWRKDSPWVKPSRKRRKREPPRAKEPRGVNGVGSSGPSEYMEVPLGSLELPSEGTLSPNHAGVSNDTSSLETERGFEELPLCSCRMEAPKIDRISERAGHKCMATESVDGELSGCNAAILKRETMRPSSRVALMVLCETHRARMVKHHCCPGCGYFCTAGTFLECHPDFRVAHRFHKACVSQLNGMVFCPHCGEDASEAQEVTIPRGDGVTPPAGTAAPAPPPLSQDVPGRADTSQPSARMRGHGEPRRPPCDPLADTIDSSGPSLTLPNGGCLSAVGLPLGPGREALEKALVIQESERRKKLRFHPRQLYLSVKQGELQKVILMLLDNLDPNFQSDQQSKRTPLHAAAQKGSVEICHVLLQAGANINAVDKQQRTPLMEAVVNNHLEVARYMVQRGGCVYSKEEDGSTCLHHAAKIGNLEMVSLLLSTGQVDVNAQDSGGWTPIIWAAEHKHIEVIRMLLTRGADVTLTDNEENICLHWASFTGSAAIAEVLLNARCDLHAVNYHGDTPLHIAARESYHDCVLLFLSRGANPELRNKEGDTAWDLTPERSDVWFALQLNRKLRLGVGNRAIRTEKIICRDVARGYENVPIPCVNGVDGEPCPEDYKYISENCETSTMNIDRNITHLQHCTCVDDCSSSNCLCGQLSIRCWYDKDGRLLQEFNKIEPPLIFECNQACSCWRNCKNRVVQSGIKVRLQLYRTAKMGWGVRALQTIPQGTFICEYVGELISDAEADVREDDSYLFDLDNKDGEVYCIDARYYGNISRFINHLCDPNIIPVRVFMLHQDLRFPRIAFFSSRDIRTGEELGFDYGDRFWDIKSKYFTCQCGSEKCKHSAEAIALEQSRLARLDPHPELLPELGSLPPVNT
Structures can show the parent of a compound that is named as a salt.
testReadout: IC50

Hey, quick one: what's IC50 for each of these?
1. COc1cc2c(NC3CCOCC3)c3cc(C)ccc3nc2cc1OCCCN1CCCC1 [Entry 114, formate]
2. COc1cc2c(NCc3ccccn3)c3c(nc2cc1OCCCN1CCCC1)CCC3
3. COc1cc2c(NC3CC3)c3c(nc2cc1OCCCN1CCCC1)CCC3 [Entry 31, trifluoroacetate]
4. COc1cc2c(Nc3ccccn3)c3c(nc2cc1OCCCN1CCCC1)CCC3 [Entry 40, formate]
5. CCN(CC)CCCOc1cc2nc3ccccc3c(NC)c2cc1OC [Entry 14, trifluoroacetate]
6. COc1cc2c(NCC(C)(C)O)c3cccnc3nc2cc1OCCCN1CCCC1
7. COc1cc2c(NCC(F)(F)F)c3c(nc2cc1OCCCN1CCCC1)CCC3 [Entry 50, trifluoroacetate]

1. 54.3 nM
2. 60.1 nM
3. 17.5 nM
4. 150 nM
5. 76 nM
6. 251 nM
7. 26 nM
